target: Regulator of G-protein signaling 4 (Homo sapiens); test: RGS4-Galphao binding modulators, SAR follow-up, biochemical, multiplexed bead flow cytometry, SAR compounds (AID 2295)
pEC50: −log10 of the molar value.
Values of pEC50 greater than or equal to 6 map to 1; values below map to 0.

# bool: pEC50 of CCN=c1scc(C)n1N=Cc1ccc(O)c(O)c1O >= 6 0

How about this molecule: O=c1c2ccccc2sn1-c1ccccc1 [2-phenyl-1,2-benzothiazol-3-one] 1

Item: Nc1c(C(=O)NCC2CCCO2)sc2nc3c(c(-c4ccco4)c12)CC/C3=C/c1ccco1 (stereo not given) [UNM-0000305796] 0

Cc1cc(C)c2c(n1)CCN(CC(=O)N1CCN(c3ccccc3)CC1)C2=O ? 0

Next molecule up: CCN(CC)S(=O)(=O)c1cccc(C(=O)NN=Cc2ccc(O)c(O)c2O)c1 1

Next up: CC1(C)OC(=O)C(=Cc2ccc(-c3ccc(S(N)(=O)=O)cc3)o2)C(=O)O1 [SMR000273939] 0

Please do the same for CCN(CC)S(=O)(=O)c1cccc(-c2n[nH]c(=S)n2N=Cc2ccc(C(=O)OC)cc2)c1 as well. 0

Follow-up item: Cc1[nH]n(-c2ccccc2)c(=S)c1/C=N/c1cccc([N+](=O)[O-])c1 0

And what about the molecule Cc1cccc(N2CCN(C(=O)CN3CCc4nc(C)cc(C)c4C3=O)CC2C)c1 (stereo not given) [KUC103675N] ? 0

Same again, this time with Cc1cccc(N2CCN(C(=O)COc3nsc4nc(C)cc(C)c34)CC2C)c1 (stereo not given) 0

One more molecule: Cc1cccc(N2CCN(C(=O)COc3noc4nc(C)cc(C)c34)CC2C)c1 (stereo not given) 0

How about Cc1cccc(N2CCN(C(=O)Cn3ccc4nc(C)cc(C)c4c3=O)CC2C)c1 (stereo not given) ? 0

Again, but for CN=c1scc(C)n1N=Cc1ccc(O)c(O)c1O 0

Same thing, different molecule: Cc1cc(Cl)ccc1/N=c1/ssnc1Cl [MLS000539990] 1

One more molecule: CCC(=O)NC(c1ccc(C)cc1)c1cc([N+](=O)[O-])c2cccnc2c1O (stereo not given) [MLS000553854] 0

Do the same for CN1CCN(C2=C(Cl)C(=O)C(c3cnc(N4CCCCC4)s3)=C(Cl)C2=O)CC1 please 1

Similarly, O=c1c2ccccc2sn1-c1ccc(S(=O)(=O)N2CCCC2)cc1 ? 1

Proceed to CCOC(=O)c1sc(NC(=O)CSc2nnc(Cc3ccccc3)o2)c(C#N)c1C 0

Now consider O=C(COc1ccccc1C(=O)NN=Cc1ccc(O)c(O)c1)NN=Cc1ccc(O)c(O)c1 and answer again. 1

Try the molecule O=C1C(Cl)=C(N2CCCCC2)C(=O)C(Cl)=C1c1cnc(N2CCCCC2)s1 [MLS000550549] 1

====

molecular target: Regulator of G-protein signaling 4 (Homo sapiens, UniProt P49798); test: RGS4-Galphao binding modulators, SAR follow-up, biochemical, multiplexed bead flow cytometry, SAR compounds (AID 2295); settings: inactive by the depositor's call
Sequence (P49798 whole entry): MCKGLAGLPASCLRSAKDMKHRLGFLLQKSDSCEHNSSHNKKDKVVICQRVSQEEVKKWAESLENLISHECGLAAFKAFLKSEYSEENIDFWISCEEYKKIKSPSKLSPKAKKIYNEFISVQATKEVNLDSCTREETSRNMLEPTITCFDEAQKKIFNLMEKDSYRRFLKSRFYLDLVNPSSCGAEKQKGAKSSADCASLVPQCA
MEASURED_METRIC: EC50
Include the unit after the number when you answer.

Which measured EC50 value corresponds to CCOc1ccccc1-c1c2cc(O)c(=O)cc-2oc2cc(O)c(O)cc12 [MLS000578271] ? 3.66 µM

====

molecular target: Regulator of G-protein signaling 4 (Homo sapiens); experiment: RGS4-Galphao binding modulators, SAR follow-up, biochemical, multiplexed bead flow cytometry, SAR compounds (AID 2295)
Please respond with reported EC50 for every item in the list.
Kindly answer with a numeric value in nM, unit omitted.

What reported EC50 corresponds to O=C(NCCCN1CCOCC1)c1sc2cc([N+](=O)[O-])ccc2c1Cl on Regulator of G-protein signaling 4 (Homo sapiens)? 10100

Similarly, NS(=O)(=O)c1ccc(N=NCc2ccc(O)c(O)c2O)c([N+](=O)[O-])c1 ? 1200

And COc1ccc(C2=CC(=O)C=CC2=O)cc1 ? 573

Note, next up: O=C(Cc1csc(N2CCOCC2)n1)NN=Cc1ccc(O)c(O)c1O 1100
